Measured values drawn from ChEMBL document CHEMBL4177726 for this set.

The following compounds are shown together with reported inhibition values.
molecular target: Neuraminidase (Influenza A virus (A/Memphis/1/1971(H3N2))) (UniProt P03471); assay: Inhibition of Influenza A virus A/Memphis/1/71(H3N2) sialidase at 3.33 x 10^-4M preincubated for 15 mins followed by MUNA substrate addition measured after 15 mins by fluorescence assay relative to control
Sequence (P03471 whole entry): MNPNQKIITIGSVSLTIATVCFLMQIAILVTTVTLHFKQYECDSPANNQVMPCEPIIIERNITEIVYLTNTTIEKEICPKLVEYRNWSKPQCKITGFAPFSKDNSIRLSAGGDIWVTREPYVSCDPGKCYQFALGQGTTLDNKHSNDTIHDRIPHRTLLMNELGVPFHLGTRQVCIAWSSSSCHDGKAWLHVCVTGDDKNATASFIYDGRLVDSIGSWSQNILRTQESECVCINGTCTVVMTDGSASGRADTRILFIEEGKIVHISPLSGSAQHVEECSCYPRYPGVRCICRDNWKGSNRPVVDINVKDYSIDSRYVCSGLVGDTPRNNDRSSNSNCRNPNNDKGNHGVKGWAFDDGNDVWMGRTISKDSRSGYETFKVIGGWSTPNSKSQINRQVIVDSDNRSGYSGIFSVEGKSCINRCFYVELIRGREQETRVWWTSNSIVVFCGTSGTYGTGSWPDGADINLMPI
MEASURED PARAMETER: inhibition (%)

[[record]]
smiles_notation = "COC(=O)[C@@]1(C)CC[C@]2(C)CC[C@]3(C)C(=CC(=O)[C@@H]4[C@@]5(C)CC[C@H](O[C@@]6(C(=O)O)C[C@H](O)[C@@H](NC(C)=O)[C@H]([C@H](O)[C@H](O)CO)O6)C(C)(C)[C@@H]5CC[C@]43C)[C@@H]2C1"
value_reported = 44.8

[[record]]
smiles_notation = "CC(=O)N[C@H]1[C@H]([C@H](O)[C@H](O)CO)O[C@@](O[C@H]2CC[C@]3(C)[C@H]4C(=O)C=C5[C@@H]6C[C@@](C)(CO)CC[C@]6(C)CC[C@@]5(C)[C@]4(C)CC[C@H]3C2(C)C)(C(=O)O)C[C@@H]1O"
value_reported = 30.3

[[record]]
smiles_notation = "CC(=O)N[C@H]1[C@H]([C@H](O)[C@H](O)CO)O[C@](O[C@H]2CC[C@]3(C)[C@H]4CC=C5[C@@H]6CC(C)(C)CC[C@]6(C(=O)O)CC[C@@]5(C)[C@]4(C)CC[C@H]3C2(C)C)(C(=O)O)C[C@@H]1O"
value_reported = 26.5

[[record]]
smiles_notation = "CC(=O)N[C@H]1[C@H]([C@H](O)[C@H](O)CO)O[C@@](O[C@H]2CC[C@]3(C)[C@H]4CC=C5[C@@H]6C[C@@](C)(CO)CC[C@]6(C)CC[C@@]5(C)[C@]4(C)CC[C@H]3C2(C)C)(C(=O)O)C[C@@H]1O"
value_reported = 45

